Assay: Approximate solubility by solvent addition technique
Type: physicochemical
Stated conditions: water, 20 °C, thermodynamic from solid, heating to 40° C. between solvent aliquots

{"Compound": "COCCOc1cccc([C@@H]2CCN(CCn3cccc3)[C@H](C)[C@H]2COc2ccc3c(c2)C(=O)NC3)c1 [free base]", "solubility": "≤ 10000 µg/mL"}

---

Assay: Potentiometric (pH-metric) LogP and logD profile
Type: physicochemical
Stated conditions: octanol/water, 25.0±0.2° C.; read-out: LogP (Potentiometric), neutral species

{"Compound": "COCCOc1cccc([C@@H]2CCN(CCn3cccc3)[C@H](C)[C@H]2COc2ccc3c(c2)C(=O)NC3)c1 [crystalline Form I]", "logP": 3.81}

The reported measurements were obtained from patent US12679825B2.
